These measurements were taken from paper PMC9583322.

test: Mouse PK, IV and PO; type: in vivo; conditions: male, CD-1, plasma, 10 mg/kg; Mouse PO PK, 10 mpk
RECORDED_ENDPOINT: half-life

Item Cc1ccccc1COc1ccc(-c2ccnn2-c2ccc(Cl)cc2)cc1 has what recorded half-life?
6.64 h

---

target: CYP2D6 (Homo sapiens); assay: CYP inhibition; format: in vitro ADME; conditions: read-out: Inhibition of human CYP 2D6
Sequence (P10635 whole entry): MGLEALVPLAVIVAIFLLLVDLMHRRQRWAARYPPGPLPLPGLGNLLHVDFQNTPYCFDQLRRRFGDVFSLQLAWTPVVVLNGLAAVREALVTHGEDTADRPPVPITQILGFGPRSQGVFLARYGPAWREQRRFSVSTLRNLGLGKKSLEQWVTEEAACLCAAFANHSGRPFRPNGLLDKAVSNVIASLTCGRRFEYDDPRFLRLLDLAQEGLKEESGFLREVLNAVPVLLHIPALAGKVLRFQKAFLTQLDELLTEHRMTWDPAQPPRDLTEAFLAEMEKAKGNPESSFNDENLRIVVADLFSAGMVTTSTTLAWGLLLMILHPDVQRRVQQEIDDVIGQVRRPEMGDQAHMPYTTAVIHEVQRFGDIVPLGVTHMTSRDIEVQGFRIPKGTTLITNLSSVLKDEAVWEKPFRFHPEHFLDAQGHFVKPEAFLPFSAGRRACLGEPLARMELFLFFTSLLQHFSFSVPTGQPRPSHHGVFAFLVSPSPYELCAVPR
RECORDED_ENDPOINT: inhibition at 10 µM (%)
Answers are plain numbers, in %.

Item Cc1ccccc1COc1ccc(-c2ccnn2-c2ccc(Cl)cc2)cc1 has what recorded inhibition at 10 µM?
22.2

---

Task for the reader: assign each of the following molecules its reported melting point.

| SMILES_REPR | melting point |
| --- | --- |
| Cc1onc(-c2ccc(OCc3ccc(C#N)cc3)cc2)c1-c1ccc(Cl)cc1 | 138.5 to 139.5 °C |
| Cc1onc(-c2ccc(OCc3cncn3C(C)C)cc2)c1-c1ccc(Cl)cc1 | 168.4 to 170.7 °C |

// for each molecule in input: emit melting point
1. Cc1ccccc1C(=O)Nc1ccc(-c2ccnn2-c2ccc(Cl)cc2)cc1
2. Cc1onc(-c2ccc(OCc3ccccc3C#N)cc2)c1-c1ccc(Cl)cc1
3. Cc1ccccc1COc1ccc(-n2nccc2-c2ccc(Cl)cc2)cc1
4. Cc1ccccc1COc1ccc(-c2oncc2-c2ccc(Cl)cc2)cc1

1: 179.1 to 180 °C; 2: 111.2 to 112.5 °C; 3: 145.2 to 146.4 °C; 4: 115.3 to 117.3 °C

// for each molecule in input: emit melting point
1. Cc1onc(-c2ccc(OCc3ccccc3OC(F)(F)F)cc2)c1-c1ccc(Cl)cc1
2. Cc1ccccc1COc1ccc(-c2noc(C)c2-c2ccc(Cl)cc2Cl)cc1
3. Cc1onc(-c2ccc(OCc3ccccc3F)cc2)c1-c1ccc(Cl)cc1
4. Cc1ccc(COc2ccc(-c3noc(C)c3-c3ccc(Cl)cc3)cc2)c(C)c1
5. COc1cccc(COc2ccc(-c3noc(C)c3-c3ccc(Cl)cc3)cc2)c1

["85.8 to 86.7 °C", "98 to 98.4 °C", "119.5 to 120.9 °C", "119.7 to 122.1 °C", "105.1 to 106.8 °C"]

// for each molecule in input: emit melting point
1. Cc1onc(-c2ccc(OCc3ccc(C(=O)O)cc3)cc2)c1-c1ccc(Cl)cc1
2. Cc1ccccc1COc1ccc(-c2noc(N)c2-c2ccc(Cl)cc2)cc1
3. Cc1cccc(COc2ccc(-c3noc(C)c3-c3ccc(Cl)cc3)cc2)n1
4. Cc1onc(-c2ccc(OCc3ccncc3)cc2)c1-c1ccc(Cl)cc1

1: 210.8 to 212.4 °C; 2: 163.1 to 165.6 °C; 3: 126.1 to 127.5 °C; 4: 124.2 to 125.8 °C

// for each molecule in input: emit melting point
1. Cc1noc(C)c1COc1ccc(-c2noc(C)c2-c2ccc(Cl)cc2)cc1
2. Cc1cccnc1COc1ccc(-c2noc(C)c2-c2ccc(Cl)cc2)cc1
3. Cc1ccccc1COc1ccc(-c2ccnn2-c2ccc(Cl)cc2)cn1
4. Cc1onc(-c2ccc(OCc3ccc(F)cc3)cc2)c1-c1ccc(Cl)cc1
5. COC(=O)c1ccc(COc2ccc(-c3noc(C)c3-c3ccc(Cl)cc3)cc2)cc1

138.9 to 141.3 °C
138.7 to 141.2 °C
126.5 to 127.8 °C
99.3 to 100.7 °C
110.7 to 111.9 °C

// for each molecule in input: emit melting point
1. COC(=O)c1cccc(COc2ccc(-c3noc(C)c3-c3ccc(Cl)cc3)cc2)c1
2. Cc1ccccc1COc1ccc(-c2noc(C)c2-c2ccc(Cl)cc2)c(F)c1
3. Cc1ccccc1COc1ccc(-c2noc(C)c2-c2ccc(N)cc2)cc1
4. Cc1ccccc1COc1ccc(-c2ccnn2-c2ccc(Cl)cc2)nc1
5. Cc1onc(-c2ccc(OCc3ccccc3OC(F)F)cc2)c1-c1ccc(Cl)cc1
6. Cc1ccc(-c2c(-c3ccc(OCc4ccccc4C)cc3)noc2C)cc1

["121.5 to 122.8 °C", "96.1 to 98.3 °C", "119.4 to 121.1 °C", "108.4 to 110.4 °C", "95.5 to 96.9 °C", "130.8 to 131.8 °C"]

// for each molecule in input: emit melting point
1. Cc1onc(-c2ccc(OCc3ccc4ccccc4n3)cc2)c1-c1ccc(Cl)cc1
2. Cc1ccccc1COc1ccc(-c2noc(C)c2-c2ccc(Cl)cc2)cc1F

1: 164.7 to 165.8 °C; 2: 108 to 110.2 °C

// for each molecule in input: emit melting point
1. Cc1ccccc1COc1ccc(-c2ccnn2-c2ccc(Cl)cc2)cc1F
2. Cc1ccccc1COc1ccc(-c2noc(C)c2-c2ccncc2)cc1
3. Cc1ccccc1COc1ccc(-c2nn(C)cc2-c2ccc(Cl)cc2)cc1
4. Cc1ccccc1COc1ccc(-c2noc(C)c2-c2ccc(C#N)cc2)cc1
5. COc1ccccc1COc1ccc(-c2noc(C)c2-c2ccc(Cl)cc2)cc1
6. Cc1ccccc1COc1ccc(-c2noc(C)c2-c2ccccc2Cl)cc1

1. 95 to 95.4 °C
2. 128.5 to 129.3 °C
3. 142.2 to 143.4 °C
4. 135.3 to 137.1 °C
5. 156.8 to 157.7 °C
6. 103.8 to 104.4 °C
